Measured Ki of individual entries
- System Under Test: 5-hydroxytryptamine receptor 1D (Bos taurus)
- Procedure Details: Binding affinity against 5-hydroxytryptamine 1D receptor in calf caudate homogenates.
Express the result in nM but write the number alone.

CN(C)CCc1c(C(=O)NCc2ccccc2)[nH]c2ccc(CCN3C(=O)CNC3=O)cc12 = 1320

Okay, now this compound:
Param item = "CN(C)CCc1c(C(=O)NCc2ccccc2)[nH]c2ccc(CCN3C(=O)NC(C)(C)C3=O)cc12" ; retrieve measured Ki.
3800

Source: BindingDB's records for doi:10.1021/jm9706325
